The measured values listed here are drawn from PubChem BioAssay.

Below is a list of entries, each paired with its recorded nuclei count value.
# method notes: reduction of polyQ htt aggregates in cells – imaging, exon1htt(103Q)mCFP cells, high-content imaging, primary screen (AID 483);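 further: compound exposure lasted 3 days before fixation; percent of the per-plate median nuclei count of sample wells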
# test conditions: exon1htt(103Q)mCFP cell line, aggregate imaging, at 2 µM; measured here: cell count, toxicity
Express it in %; write the number only.

Example entries and their recorded answers appear below.
> print(dat)
                                   molecule  quantity.kind  readout.value
1  C=CS(=O)(=O)c1ccc(Oc2ccc(S(=O)(=O)C=C)cc2)cc1   nuclei count           80.8
2  Cc1ccc(C)c(N(CC(=O)NC2CCCC2)C(=O)CCCC(=O)Nc2ccccn2)c1   nuclei count           93.9
3          FC(F)Sc1nnc(-c2cccs2)n1-c1ccccc1   nuclei count           95.3

nuclei count reported for this molecule `CCOc1ccc2c(O)csc2c1` : 109

// field: nuclei count; key: CC(C(=O)N1CCCCC1)n1sc2ccccc2c1=O (centres undefined) ; value = 111

`CCN(c1cccc(C)c1)S(=O)(=O)c1ccc2[nH]c(=O)c(=O)[nH]c2c1` yielded nuclei count of 93.5

Notebook: `COc1ccc(-c2cc(C(=O)Nc3ccc(C)cc3)no2)cc1` , nuclei count read as 108

Reported nuclei count ( `COc1ccccc1-c1cc2nc(C)c(CCC(=O)NCc3ccco3)c(C)n2n1` ) = 115

Form field nuclei count, entry `CCOC(=O)c1cc2c(=O)n3ccccc3nc2n(CCCOC)c1=NC(=O)C(C)(C)C` : 86.8

Item: `O=C(COC(=O)c1ccc(Br)o1)Nc1ccc(S(=O)(=O)N2CCCC2)cc1` | nuclei count: 117

Entry COc1ccc(-c2nnc(SC(C)C(=O)Nc3nccs3)n2-c2ccccc2)cc1OC (centres undefined) ; nuclei count = 82.2
